- procedure.text: refractive index (Na D-line) (dimensionless)
- experimental.parameters: 298.2 K; 101.33 kPa; Liquid; Standard Abbe refractometry
Numbers after ± are expanded uncertainties.

{"compound": "O", "refractive index": "1.3325 ± 0.0032"}
{"compound": "CCCCO", "refractive index": "1.3973 ± 0.0032"}
{"compound": "CCCC(C)O (centres undefined)", "refractive index": "1.4044 ± 0.0032"}
{"compound": "CCC(C)O (centres undefined)", "refractive index": "1.3952 ± 0.0016"}

====

Listed here: items and their measured mass density.
- experimental.parameters: 298.2 K; 101.33 kPa; Liquid; Vibrating tube method

{"compound": "CCCCO", "mass density / kg/m3": 805.81}
{"compound": "O", "mass density / kg/m3": 997.17}
{"compound": "CCCC(C)O (centres undefined)", "mass density / kg/m3": 805.37}
{"compound": "CCC(C)O (centres undefined)", "mass density / kg/m3": 802.49}
